- Test system: E. coli ATCC 25922
- test-protocol: Broth microdilution MIC in CAMHB
- Format: cell-based
- setup-conditions: Escherichia coli, ATCC25922; MHB; E. coli ATCC 25922; read-out: Minimum Inhibitory Concentration, E. coli 25922
outcome-measure: MIC

Take a look at these entries with their results.
molecule	test-result
C[C@H]1CN(CCF)C(=O)C(=O)N1C(=O)NC(C(=O)N[C@H]1Cc2cccc(C(=O)O)c2OB1O)c1cc(F)c(O)c(F)c1F (some centres unmarked) [Example 248]	8 to 16 µg/mL
C[C@H]1CN(CCF)C(=O)C(=O)N1C(=O)NC(C(=O)N[C@H]1Cc2cccc(C(=O)O)c2OB1O)c1c(F)cc(O)cc1F (some centres unmarked) [Example 233]	8 to 16 µg/mL
CCN1C[C@H](C)N(C(=O)NC(C(=O)N[C@H]2Cc3cccc(C(=O)O)c3OB2O)c2c(F)cc(O)cc2F)C(=O)C1=O (some centres unmarked) [Example 232]	8 to 16 µg/mL
NC1(CN2CCN(C(=O)N[C@@H](C(=O)N[C@H]3Cc4cccc(C(=O)O)c4OB3O)c3ccc(O)c(F)c3F)C(=O)C2=O)CC1 (single isomer, unassigned) [Example 236]	32 to 64 µg/mL
CCN1CCN(C(=O)N[C@@H](C(=O)N[C@H]2Cc3cccc(C(=O)O)c3OB2O)c2ccc(C(=O)O)c(Cl)c2F)C(=O)C1=O (single isomer, unassigned) [Example 222]	32 to 64 µg/mL

Read the entry NC1(CN2CCN(C(=O)N[C@H](C(=O)N[C@H]3Cc4cccc(C(=O)O)c4OB3O)c3ccc(O)c(F)c3F)C(=O)C2=O)CC1 (single isomer, unassigned) [Example 237] and write its reported MIC.
> 128 µg/mL

Read the entry C[C@H]1CN(CCF)C(=O)C(=O)N1C(=O)N[C@@H](C(=O)N[C@H]1Cc2cccc(C(=O)O)c2OB1O)c1ccc(O)c(F)c1F [Example 241] and write its reported MIC.
8 to 16 µg/mL

Read the entry NCCCN1CCN(C(=O)N[C@H](C(=O)N[C@H]2Cc3cccc(C(=O)O)c3OB2O)c2ccc(O)c(F)c2F)C(=O)C1=O (single isomer, unassigned) [Example 239] and write its reported MIC.
> 128 µg/mL

----------
- Test system: N. gonorrhoeae WHO Z
- test-protocol: Liquid broth MIC in Fastidious broth
- Assay type: cell-based
- setup-conditions: Neisseria gonorrhoeae, read-out: Minimum Inhibitory Concentration, N. gonorrhoeae WHO Z
outcome-measure: MIC

Take a look at these entries with their results.
compound	MIC
NCCN1CCN(C(=O)NC(C(=O)N[C@H]2Cc3cccc(C(=O)O)c3OB2O)c2c(F)cc(O)cc2Cl)C(=O)C1=O (some centres unmarked) [Example 94]	> 64 µg/mL
NCCN1CCN(C(=O)N[C@H](C(=O)N[C@H]2Cc3cccc(C(=O)O)c3OB2O)c2ccc(O)c([N+](=O)[O-])c2)C(=O)C1=O (single isomer, unassigned) [Example 200]	> 64 µg/mL

Tell me its MIC on N. gonorrhoeae WHO Z: O=C(O)c1cccc2c1OB(O)[C@@H](NC(=O)[C@H](NC(=O)N1CCN(CCF)C(=O)C1=O)c1c(F)cc(O)cc1F)C2 (single isomer, unassigned) [Example 126]
4 to 8 µg/mL

Tell me its MIC on N. gonorrhoeae WHO Z: CCN1CCN(C(=O)N[C@@H](C(=O)N[C@H]2Cc3cccc(C(=O)O)c3OB2O)c2ccc(C(=O)O)cc2)C(=O)C1=O (single isomer, unassigned) [Example 124]
1 to 2 µg/mL

Tell me its MIC on N. gonorrhoeae WHO Z: CCN1CCN(C(=O)NC(C(=O)N[C@H]2Cc3ccc(O[C@@H]4CN[C@H](C(=O)N(C)C)C4)c(C(=O)O)c3OB2O)c2ccccc2)C(=O)C1=O (some centres unmarked) [Example 59]
> 64 µg/mL

----------
- System: N. gonorrhoeae ATCC 49226
- test-protocol: Liquid broth MIC in Fastidious broth
- Type: cell-based
- setup-conditions: Neisseria gonorrhoeae, ATCC49226; N. gonorrhoeae strain ATCC 49226; Fastidious broth; read-out: Minimum Inhibitory Concentration, N. gonorrhoeae ATCC 49226
outcome-measure: MIC

compound	MIC
CCN1CCN(C(=O)NC(C(=O)N[C@H]2Cc3cccc(C(=O)O)c3OB2O)c2ccc(C(N)=O)c(O)c2)C(=O)C1=O (stereo partly shown)	1 to 2 µg/mL
NCCN1CCN(C(=O)NC(C(=O)N[C@H]2Cc3ccc(F)c(C(=O)O)c3OB2O)c2nc(N)sc2F)C(=O)C1=O (stereo partly shown)	> 64 µg/mL
NS(=O)(=O)c1cccc(C(NC(=O)N2CCN(CCF)C(=O)C2=O)C(=O)N[C@H]2Cc3cccc(C(=O)O)c3OB2O)c1 (stereo partly shown)	16 to 32 µg/mL
NC1(CN2CCN(C(=O)N[C@H](C(=O)N[C@H]3Cc4cccc(C(=O)O)c4OB3O)c3c(F)cc(O)cc3F)C(=O)C2=O)CC1 (single isomer, unassigned)	> 64 µg/mL
O=C(Nc1ccccc1)NC(C(=O)N[C@H]1Cc2ccc(F)c(C(=O)O)c2OB1O)c1ncc(O)cc1F (stereo partly shown)	16 to 32 µg/mL

Read the entry CCN1CCN(C(=O)N[C@H](C(=O)N[C@H]2Cc3cccc(C(=O)O)c3OB2O)c2ccc(C(=O)O)cc2O)C(=O)C1=O (single isomer, unassigned) and write its reported MIC.
16 to 32 µg/mL

Read the entry NCCN1CCN(C(=O)N[C@@H](C(=O)N[C@H]2Cc3ccc(F)c(C(=O)O)c3OB2O)c2cc(F)c(O)c(O)c2Cl)C(=O)C1=O (single isomer, unassigned) and write its reported MIC.
> 64 µg/mL

Read the entry CCN1CCN(C(=O)NC(C(=O)N[C@H]2Cc3cccc(C(=O)O)c3OB2O)c2cc(F)c(O)cc2Cl)C(=O)C1=O (stereo partly shown) and write its reported MIC.
16 to 32 µg/mL

Read the entry CCN1CCN(C(=O)NC(C(=O)N[C@H]2Cc3ccc(O[C@@H]4CN[C@H](C(=O)N(C)C)C4)c(C(=O)O)c3OB2O)c2ccccc2)C(=O)C1=O (stereo partly shown) and write its reported MIC.
> 64 µg/mL

----------
Measured MIC accompanies every entry in the list below.
- Tested on: E. coli 901C
- test-protocol: Broth microdilution MIC in CAMHB
- Assay type: cell-based
- setup-conditions: Escherichia coli; E. coli 901C (hyper-permeable); MHB; read-out: Minimum Inhibitory Concentration, E. coli 901C
- Source text: Example III: In Vitro Antibacterial Assays To determine the ability of test compounds to inhibit the growth of bacterial strains, classic cell based broth microdilution minimum inhibitory concentration (MIC) assays were employed. […] Briefly, cryo-preserved bacterial cultures of challenge strains are streaked for isolation on appropriate agar medium, in this case cation-adjusted Mueller Hinton agar. […] The MIC values are read visually as the lowest concentration well with no bacterial growth.

compound	test-result
NS(=O)(=O)Nc1cccc([C@H](NC(=O)N2CCN(CC(F)(F)F)C(=O)C2=O)C(=O)N[C@H]2Cc3cccc(C(=O)O)c3OB2O)c1 (single isomer, unassigned)	2 to 4 µg/mL

Read the entry CCN1CCN(C(=O)NC(C(=O)N[C@H]2Cc3cccc(C(=O)O)c3OB2O)c2ccc(C(=O)O)cc2F)C(=O)C1=O (stereo partly drawn) and write its reported MIC.
< 0.25 µg/mL

Read the entry CCN1CCN(C(=O)NC(C(=O)N[C@H]2Cc3cccc(C(=O)O)c3OB2O)c2ccc(C(=O)O)c(Cl)c2Cl)C(=O)C1=O (stereo partly drawn) and write its reported MIC.
0.5 to 1 µg/mL

----------
- Test system: N. gonorrhoeae WHO Z
- test-protocol: Liquid broth MIC in Fastidious broth
- Type: cell-based
- setup-conditions: Neisseria gonorrhoeae, read-out: Minimum Inhibitory Concentration, N. gonorrhoeae WHO Z
outcome-measure: MIC

Read the entry CCN1CCN(C(=O)NC(C(=O)N[C@H]2Cc3cccc(C(=O)O)c3OB2O)c2cc(Cl)c(O)cc2F)C(=O)C1=O (stereo partly shown) and write its reported MIC.
16 to 32 µg/mL

Read the entry CCN1CCN(C(=O)NC(C(=O)N[C@H]2Cc3cccc(C(=O)O)c3OB2O)c2cccc(O)c2)C(=O)C1=O (stereo partly shown) and write its reported MIC.
16 to 32 µg/mL

Read the entry CCN1CCN(C(=O)N[C@H](C(=O)N[C@H]2Cc3cccc(C(=O)O)c3OB2O)c2ccc(C(=O)O)cc2)C(=O)C1=O (single isomer, unassigned) and write its reported MIC.
1 to 2 µg/mL

Read the entry O=C(O)c1c(F)ccc2c1OB(O)[C@@H](NC(=O)C(NC(=O)N1CCN(CCF)C(=O)C1=O)c1c(F)cc(O)cc1F)C2 (stereo partly shown) and write its reported MIC.
4 to 8 µg/mL

Read the entry N=C(N)NCCN1CCN(C(=O)NC(C(=O)N[C@H]2Cc3ccc(F)c(C(=O)O)c3OB2O)c2ccc(C(=O)O)c(F)c2)C(=O)C1=O (stereo partly shown) and write its reported MIC.
16 to 32 µg/mL

Read the entry NCCN1CCN(C(=O)NC(C(=O)N[C@H]2Cc3cccc(C(=O)O)c3OB2O)c2cc(Cl)c(O)cc2F)C(=O)C1=O (stereo partly shown) and write its reported MIC.
> 64 µg/mL

Read the entry NCCN1CCN(C(=O)N[C@@H](C(=O)N[C@H]2Cc3cccc(C(=O)O)c3OB2O)c2ccc(O)cc2F)C(=O)C1=O (single isomer, unassigned) and write its reported MIC.
> 64 µg/mL

Read the entry CCN1CCN(C(=O)NC(C(=O)N[C@H]2Cc3cccc(C(=O)O)c3OB2O)c2c(F)cc(NC(C)=O)cc2F)C(=O)C1=O (stereo partly shown) and write its reported MIC.
16 to 32 µg/mL

Read the entry NS(=O)(=O)c1cc(O)cc(C(NC(=O)N2CCN(Cc3c(F)cc(O)c(O)c3Cl)C(=O)C2=O)C(=O)N[C@H]2Cc3cccc(C(=O)O)c3OB2O)c1 (stereo partly shown) and write its reported MIC.
> 64 µg/mL

Read the entry NC1(CN2CCN(C(=O)NC(C(=O)N[C@H]3Cc4cccc(C(=O)O)c4OB3O)c3cccc(NS(N)(=O)=O)c3)C(=O)C2=O)CC1 (stereo partly shown) and write its reported MIC.
> 64 µg/mL
